These entries and their values trace back to the supplement of paper PMC10899765.

system: MCF10A; experiment: 5+ nucleoli phenotype percent effect (relative to siNT 0% and siKIF11 100%); higher = more cells with five or more nucleoli; details: 20 nM; 72 h
Reported 5+ nucleoli phenotype percent effect is given for each of the following sequences.
Numeric only. Scale: %

Some sequences with recorded 5+ nucleoli phenotype percent effect:
[
  {
    "sequence chain": "UCAGUGUCUGGAUUUCCUAG [hsa-miR-6733-3p]",
    "output unit": "%",
    "5+ nucleoli phenotype percent effect": -16.2
  },
  {
    "sequence chain": "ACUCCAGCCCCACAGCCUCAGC [hsa-miR-766-3p]",
    "output unit": "%",
    "5+ nucleoli phenotype percent effect": -19.8
  },
  {
    "sequence chain": "GGAGGCCGGGGUGGGGCGGGGCGG [hsa-miR-6089]",
    "output unit": "%",
    "5+ nucleoli phenotype percent effect": 53
  },
  {
    "sequence chain": "GCCCUCCGCCCGUGCACCCCG [hsa-miR-1470]",
    "output unit": "%",
    "5+ nucleoli phenotype percent effect": 45.2
  },
  {
    "sequence chain": "CAGGGCUCAGGGAUUGGAUGGAGG [hsa-miR-5088-5p]",
    "output unit": "%",
    "5+ nucleoli phenotype percent effect": 15.2
  },
  {
    "sequence chain": "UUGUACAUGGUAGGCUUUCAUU [hsa-miR-493-5p]",
    "output unit": "%",
    "5+ nucleoli phenotype percent effect": -9.79
  },
  {
    "sequence chain": "AAAAGCACUUUUCUGUCUCCCAG [hsa-miR-6835-3p]",
    "output unit": "%",
    "5+ nucleoli phenotype percent effect": -36
  },
  {
    "sequence chain": "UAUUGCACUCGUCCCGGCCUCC [hsa-miR-92b-3p]",
    "output unit": "%",
    "5+ nucleoli phenotype percent effect": 2.75
  }
]

Now look at this entry.
Q. Request the reported 5+ nucleoli phenotype percent effect associated with CAGGACUUGACGGCUGCAACU [hsa-miR-8083]
A. 22.5

====

system: MCF10A; experiment: one-nucleolus phenotype percent effect (relative to siNT 0% and siNOL11 100%); higher = more cells with one nucleolus (ribosome biogenesis inhibition); settings: 20 nM; 72 h
endpoint label: one-nucleolus phenotype percent effect (%)
Give a bare numeral; the unit % is implied.

Solved entries (count: 10):
[
  {
    "sequence chain": "CCUGGUGGCUUCCUUUU [hsa-miR-4456]",
    "system": "MCF10A",
    "one-nucleolus phenotype percent effect (%)": 6.37
  },
  {
    "sequence chain": "AUAGCAAUUGCUCUUUUGGAA [hsa-miR-4766-3p]",
    "system": "MCF10A",
    "one-nucleolus phenotype percent effect (%)": 19.4
  },
  {
    "sequence chain": "UUAGUGAAGGCUAUUUUAAUU [hsa-miR-3606-5p]",
    "system": "MCF10A",
    "one-nucleolus phenotype percent effect (%)": 6.89
  },
  {
    "sequence chain": "CUCGCCCUGUCUCCCGCUAG [hsa-miR-6726-3p]",
    "system": "MCF10A",
    "one-nucleolus phenotype percent effect (%)": -28.4
  },
  {
    "sequence chain": "GGUUCCCUCUCCAAAUGUGUCU [hsa-miR-642b-5p]",
    "system": "MCF10A",
    "one-nucleolus phenotype percent effect (%)": 11.8
  },
  {
    "sequence chain": "GAAAGCGCUUCUCUUUAGAGG [hsa-miR-518f-3p]",
    "system": "MCF10A",
    "one-nucleolus phenotype percent effect (%)": 17.1
  },
  {
    "sequence chain": "UCCCUCCUUCUGUCCCCACAG [hsa-miR-4667-3p]",
    "system": "MCF10A",
    "one-nucleolus phenotype percent effect (%)": -2.78
  },
  {
    "sequence chain": "AGGAGGUGGUACUAGGGGCCAGC [hsa-miR-6851-5p]",
    "system": "MCF10A",
    "one-nucleolus phenotype percent effect (%)": 31.8
  },
  {
    "sequence chain": "UAGGUGGCGCCGGAGGAGUCAUU [hsa-miR-6815-5p]",
    "system": "MCF10A",
    "one-nucleolus phenotype percent effect (%)": 20.3
  },
  {
    "sequence chain": "UAUCCAGCUUGUUACUAUAUGC [hsa-miR-5586-5p]",
    "system": "MCF10A",
    "one-nucleolus phenotype percent effect (%)": -0.119
  }
]

Q. Please state recorded one-nucleolus phenotype percent effect (tested on MCF10A) of AGGAGAAGUCGGGAAGGU [hsa-miR-5703]
A. -5.15

Q. MCF10A / one-nucleolus phenotype percent effect / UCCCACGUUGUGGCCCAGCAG [hsa-miR-662] : value?
A. -20.4

Q. Record UAUUCAGAAAGGUGCCAGUCA [hsa-miR-892c-5p] : what is its one-nucleolus phenotype percent effect with MCF10A?
A. -3.71

Q. Find one-nucleolus phenotype percent effect (MCF10A) for the entry ACUCCAUUUGUUUUGAUGAUGGA [hsa-miR-136-5p]
A. -13

Q. Any idea what one-nucleolus phenotype percent effect came out for UCCCCUGCUCCCUUGUUCCCCAG [hsa-miR-6810-3p] on MCF10A?
A. 3.27

Q. I'm curious: which one-nucleolus phenotype percent effect was measured for UUGGCCAUGGGGCUGCGCGG [hsa-miR-3187-3p] tested on MCF10A?
A. -2.01

Q. Observed one-nucleolus phenotype percent effect on MCF10A for AAAGUCUCGCUCUCUGCCCCUCA [hsa-miR-3184-3p] , please.
A. -19.6

====

tested on: MCF10A; experiment: one-nucleolus phenotype percent effect (relative to siNT 0% and siNOL11 100%); higher = more cells with one nucleolus (ribosome biogenesis inhibition); conditions: 20 nM; 72 h
# reported one-nucleolus phenotype percent effect; entries follow
A number alone suffices; assume %.

Q. Which one-nucleolus phenotype percent effect is listed for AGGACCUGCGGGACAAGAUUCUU [hsa-miR-492] ?
A. 9.32

Q. Tell me the measured one-nucleolus phenotype percent effect of UGGAUUUCUUUGUGAAUCACCA [hsa-miR-876-5p] , please.
A. -21.7

Q. one-nucleolus phenotype percent effect for CUAGGGGGUUUGCCCUUG [hsa-miR-4278] ?
A. 67.1

Q. # get_value(readout='one-nucleolus phenotype percent effect', item= AAAAGUAAUUGUGGAUUUUGCU [hsa-miR-548ab] )
A. -19.3

Q. Given the sequence GAGGGCAGAGCCAGCUUCCUGA [hsa-miR-7843-5p] , what is its reported one-nucleolus phenotype percent effect?
A. 16.5

Q. Query: one-nucleolus phenotype percent effect; subject: UCAGCAAACAUUUAUUGUGUGC [hsa-miR-545-3p]
A. -21.8

Q. What one-nucleolus phenotype percent effect value was documented for this sequence, UGAGUCAGCAACAUAUCCCAUG [hsa-miR-5702] ?
A. -25.5

Q. What does the record list as one-nucleolus phenotype percent effect for GGGAUUCUGUAGCUUCCU [hsa-miR-4320] ?
A. 50

Q. // query one-nucleolus phenotype percent effect value for entry CAAAGUGCCUCCCUUUAGAGUG [hsa-miR-519d]
A. -20.2

Q. Quick check: one-nucleolus phenotype percent effect of UGUGUUAGAAUAGGGGCAAUAA [hsa-miR-3152-3p] ?
A. 4.92

Q. Would you mind telling me what one-nucleolus phenotype percent effect value was observed for CUGGCAGGGGGAGAGGUA [hsa-miR-7150] ?
A. 46.7

Q. Dear colleague, I am looking for the recorded one-nucleolus phenotype percent effect of the following sequence: AAAAGUAAUUGCGAGUUUUACC [hsa-miR-548a-5p]
A. -20.8

====

system: MCF10A; test: one-nucleolus phenotype percent effect (relative to siNT 0% and siNOL11 100%); higher = more cells with one nucleolus (ribosome biogenesis inhibition); conditions: 20 nM; 72 h
Each record here notes measured one-nucleolus phenotype percent effect.
Quick reminder: number only, in %, skip the unit.

See these solved cases before continuing.
[
  {
    "sequence chain": "AUGUCCCACCCCCACUCCUGU [hsa-miR-4433b-5p]",
    "one-nucleolus phenotype percent effect (%)": 55.5
  },
  {
    "sequence chain": "AGGUUGACAUACGUUUCCC [hsa-miR-563]",
    "one-nucleolus phenotype percent effect (%)": -18
  },
  {
    "sequence chain": "GACAUUCAGACUACCUG [hsa-miR-4262]",
    "one-nucleolus phenotype percent effect (%)": 6.49
  }
]

Q. Which one-nucleolus phenotype percent effect is reported for this sequence? GGUGGGAUGGAGAGAAGGUAUGAG [hsa-miR-4769-5p]
A. -13.3

Q. Reported one-nucleolus phenotype percent effect for AGAGCAGAAGGAUGAGAU [hsa-miR-4468] : what is it?
A. 66.8

Q. Need one-nucleolus phenotype percent effect, item GCAGGUGCUCACUUGUCCUCCU [hsa-miR-764]
A. 49.3
